test system: ACHN renal; test: NCI-60 one-dose screen, 48 h; settings: 10 µM unless noted
Compounds without any hit were thinned out: in the full panel of roughly 83,000, 20% have a hit. Calls of active or inactive are those of the source. The calls were made as follows: active = growth percent below 10; inactive = the rest.
Outcome codes: active, inactive

- molecule: "C#CC#CC#CC#CC#CC#CC#CC#CC[C@@H]1OC[C@@H](COC(=O)O[C@@H](C(=O)O[C@H]2C[C@@]3(O)[C@@H](OC(=O)c4ccccc4)[C@@H]4[C@]5(OC(C)=O)CO[C@@H]5C[C@H](O)[C@@]4(C)C(=O)[C@H](OC(C)=O)C(=C2C)C3(C)C)[C@@H](NC(=O)c2ccccc2)c2ccccc2)O1"
  cat: "inactive"
- molecule: "Cc1cccc(N2CCC(=O)NC2=S)c1"
  cat: "inactive"
- molecule: "COc1ccc(/C=C/C(c2cc(OC)c(OC)c(OC)c2)n2ccnc2)cc1O (stereo not drawn)"
  cat: "inactive"
- molecule: "C=CCC(CCCC)(C(=O)OCC)C(=O)OCC"
  cat: "inactive"
- molecule: "CC1=C(C(=O)Nc2ccccc2)C(c2ccc3c(c2)OCO3)NC(=S)N1 (stereo not drawn)"
  cat: "inactive"
- molecule: "CCN(CC)CCN1C(=O)c2cccc3c(/C=C/CN4C(=O)c5cccc6cccc(c56)C4=O)ccc(c23)C1=O"
  cat: "inactive"
- molecule: "C[C@]1(O)CC(=O)[C@]2(O)C3=C(C=C[C@]2(O)C1)C(=O)c1c(O)cccc1C3=O"
  cat: "active"
- molecule: "CC1CCN(C(=S)SCC(=O)NC(=O)c2ccccc2)CC1"
  cat: "inactive"

====

system: UACC-257 melanoma; test: NCI-60 one-dose screen, 48 h (100 = growth as untreated, 0 = no growth, -100 = all killed); conditions: 10 µM unless noted
Compounds without any hit were thinned out: in the full panel of roughly 83,000, 20% have a hit.
Grouping rule (growth): low class (below 80%), middle class (80% to below 90%), high class (90% or more)

- compound: "CCCn1nc(C(=O)N(C)Cc2ccccc2)c2c1CCC(N1CCc3ccccc31)C2 (configuration not stated)"
  cat: "high class"
- compound: "O=C(CI)NC(=O)NC(=O)NCc1ccccc1"
  cat: "middle class"
- compound: "CSC(SC)=C(C#N)c1nc2ccccc2s1"
  cat: "low class"
- compound: "C#CCO[C@H]1CC(CC#C)(CC#C)C(=O)[C@@H]2[C@H]1[C@H]1C[C@@H]3[C@@]4(C)CCC[C@@](C)(C(=O)OC)[C@@H]4CC[C@@]23C=C1C(C)C"
  cat: "high class"
- compound: "CN(CCC(=O)c1ccccc1)CCC(=O)c1ccccc1"
  cat: "high class"
- compound: "O=C(CSc1nc(-c2ccccc2)cc(=O)[nH]1)Nc1nc(-c2ccccc2)cs1"
  cat: "high class"
- compound: "Cn1cc(-c2nn3cc(-c4cccs4)nc3s2)c2cc(F)ccc21"
  cat: "low class"
- compound: "NC(=O)c1cnc(Nc2cccc(N)c2)nc1NCCCNC(=O)C1CCC1"
  cat: "high class"
- compound: "O=C(C1=Cc2cc3ccccc3n2Cc2cnnn21)c1ccc(O)cc1"
  cat: "middle class"
- compound: "CC1(C)[C@@H](O[C@@H]2OC[C@@H](O[C@@H]3O[C@H](CO)[C@@H](O)[C@H](O)[C@H]3O[C@@H]3OC[C@@H](O)[C@H](O)[C@H]3O)[C@H](O)[C@H]2O[C@@H]2O[C@H](CO)[C@@H](O)[C@H](O)[C@H]2O)CC[C@]2(C)[C@H]3CC[C@]45OC[C@@]6(CC[C@](C)(C=O)C[C@H]64)[C@H](O)C[C@@]5(C)[C@]3(C)CC[C@@H]12"
  cat: "low class"
- compound: "COC(=O)C(Cc1ccccc1)NC(=O)c1ccc(NC(=O)c2[nH]c(C)c(Cl)c2Cl)c(OC(C)C)c1 (configuration not stated)"
  cat: "high class"
- compound: "COC(=O)c1c2c(c(C)[n+]([O-])c1C)C(=O)C(NCc1cccc(Cl)c1)=CC2=O"
  cat: "low class"
- compound: "Clc1ccccc1-c1cnn2cc(-c3ccccc3)cnc12"
  cat: "middle class"
- compound: "C=C1C(=O)O[C@H]2[C@H]1CC/C(COC(=O)/C=C\\C(=O)NCc1ccc(Cn3c(=O)sn(CCCCC)c3=O)cc1)=C\\CC[C@@]1(C)O[C@@H]21"
  cat: "low class"
- compound: "CN1CCN(c2ccc3nc4c(nc3c2C(F)(F)F)C(=O)c2ncccc2C4=O)CC1"
  cat: "low class"

All figures here come from PubChem BioAssay (NCI).
